Listed next: entries and their corresponding pIC50.
# Test system: 817829-284-R-J1-PDC complex spheroid viability
# ASSAY_EXPLANATION: Anticancer human tumor 817829-284-R-J1-PDC patient-derived colon adenocarcinoma cell line growth inhibition [POLQ]
# CONDITION_INFO: curve of first compound; second compound 1 µM
// scale note: pIC50 = -log10(conc_M); give the bare number

O=c1[nH]cc(F)c(=O)[nH]1 + Cc1cccc(N(C)C(=O)C2C(O)CCN2c2nc(C)cc(C(F)(F)F)c2C#N)c1 :: 5.51
O=C(c1cc(Cc2n[nH]c(=O)c3ccccc23)ccc1F)N1CCN(C(=O)C2CC2)CC1 + Cc1cccc(N(C)C(=O)C2C(O)CCN2c2nc(C)cc(C(F)(F)F)c2C#N)c1 :: 5.54

QUERY: For COc1ccc([C@@H](O)c2cc(-c3ncnc4cc(N5CCOCC5)ccc34)c(F)cc2Cl)nn1 + Cc1cccc(N(C)C(=O)C2C(O)CCN2c2nc(C)cc(C(F)(F)F)c2C#N)c1 , what is its reported pIC50?
RESULT: 5.91

----------
# System: 817829-284-R-J1-PDC complex spheroid viability
# ASSAY_EXPLANATION: Anticancer human tumor 817829-284-R-J1-PDC cell line growth inhibition [POLQ];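 further: spheroids exposed to compounds for 7 days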;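 on viability, T/C: 100% = DMSO vehicle-treated spheroids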
# CONDITION_INFO: second compound 10 µM; first compound 1 µM; stronger effect = lower value
Documented viability, T/C across a set of molecules
// return numeric value only (unit: %, not printed)

CCc1c2c(nc3ccc(O)cc13)-c1cc3c(c(=O)n1C2)COC(=O)[C@]3(O)CC + COC1C(OC(N)=O)C(O)C(Oc2ccc3c(O)c(NC(=O)c4ccc(O)c(CC=C(C)C)c4)c(=O)oc3c2C)OC1(C)C :: 2.89
CC(C)n1c(=O)n(C)c2cnc3cc(F)c(-c4ccc(OCCCN5CCCCC5)nc4)cc3c21 + Nc1ccc(C#CCN(C(=O)Cc2ncc(C(F)(F)F)cc2C(F)(F)F)c2ccc(F)cc2)nn1 :: 76.3
CCc1cc2c(N3CCc4c(cc(Cn5ccnc5)cc4-c4cn(C)nc4C(F)(F)F)C3=O)cc(C)nc2c(OC)n1 + COC1C(OC(N)=O)C(O)C(Oc2ccc3c(O)c(NC(=O)c4ccc(O)c(CC=C(C)C)c4)c(=O)oc3c2C)OC1(C)C :: 65.6
COc1cccc(OCCCN)c1-c1cc(Nc2cnc(C#N)cn2)n[nH]1 + Nc1ccc(C#CCN(C(=O)Cc2ncc(C(F)(F)F)cc2C(F)(F)F)c2ccc(F)cc2)nn1 :: 3.39

QUERY: Reported viability, T/C, molecule COc1cccc2c1C(=O)c1c(O)c3c(c(O)c1C2=O)CC(O)(C(=O)CO)CC3OC1CC(N)C(O)C(C)O1 (configuration not stated) + COC1C(OC(N)=O)C(O)C(Oc2ccc3c(O)c(NC(=O)c4ccc(O)c(CC=C(C)C)c4)c(=O)oc3c2C)OC1(C)C : ____
RESULT: 0.49

QUERY: // returns reported viability, T/C for input CC1COCCN1c1cc(C2(O)CC3CCC(C2)O3)c2cnn(-c3ccn[nH]3)c2n1 (configuration not stated) + Nc1ccc(C#CCN(C(=O)Cc2ncc(C(F)(F)F)cc2C(F)(F)F)c2ccc(F)cc2)nn1
RESULT: 3.1

QUERY: // returns reported viability, T/C for input O=c1[nH]cc(F)c(=O)[nH]1 + Nc1ccc(C#CCN(C(=O)Cc2ncc(C(F)(F)F)cc2C(F)(F)F)c2ccc(F)cc2)nn1
RESULT: 54.8

QUERY: Field request: viability, T/C | item: C=CCn1c(=O)c2cnc(Nc3ccc(N4CCN(C)CC4)cc3)nc2n1-c1cccc(C(C)(C)O)n1 + Cc1cccc(N(C)C(=O)C2C(O)CCN2c2nc(C)cc(C(F)(F)F)c2C#N)c1
RESULT: 5.63

QUERY: Value lookup for viability, T/C; key = CNCc1ccc(-c2[nH]c3cc(F)cc4c3c2CCNC4=O)cc1 + COC1C(OC(N)=O)C(O)C(Oc2ccc3c(O)c(NC(=O)c4ccc(O)c(CC=C(C)C)c4)c(=O)oc3c2C)OC1(C)C
RESULT: 90.1

QUERY: Param item = COc1ccc([C@@H](O)c2cc(-c3ncnc4cc(N5CCOCC5)ccc34)c(F)cc2Cl)nn1 + Nc1ccc(C#CCN(C(=O)Cc2ncc(C(F)(F)F)cc2C(F)(F)F)c2ccc(F)cc2)nn1 ; retrieve measured viability, T/C.
RESULT: 39.1

QUERY: Sample CC1COCCN1c1cc(-c2ccnn2C)c2ccnc(-c3ccn[nH]3)c2n1 (configuration not stated) + Cc1cccc(N(C)C(=O)C2C(O)CCN2c2nc(C)cc(C(F)(F)F)c2C#N)c1 — what was its viability, T/C?
RESULT: 4.51

QUERY: // lookup viability, T/C for COc1ccc([C@@H](O)c2cc(-c3ncnc4cc(N5CCOCC5)ccc34)c(F)cc2Cl)nn1 + COC1C(OC(N)=O)C(O)C(Oc2ccc3c(O)c(NC(=O)c4ccc(O)c(CC=C(C)C)c4)c(=O)oc3c2C)OC1(C)C
RESULT: 43.9

----------
# Tested on: 817829-284-R-J1-PDC complex spheroid viability
# ASSAY_EXPLANATION: Anticancer human tumor 817829-284-R-J1-PDC cell line growth inhibition [POLQ];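 further: spheroids exposed to compounds for 7 days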;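 on viability, T/C: 100% = DMSO vehicle-treated spheroids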
# CONDITION_INFO: second compound 10 µM; first compound 1 µM; stronger effect = lower value
MEASUREMENT_LABEL: viability, T/C (%)
Answer format: numeric, % implied, no suffix.

Would you please look over these solved cases?
CCCS(=O)(=O)Nc1ccc(F)c(C(=O)c2c[nH]c3ncc(-c4ccc(Cl)cc4)cc23)c1F + Nc1ccc(C#CCN(C(=O)Cc2ncc(C(F)(F)F)cc2C(F)(F)F)c2ccc(F)cc2)nn1 :: 75.9
C#Cc1c(F)ccc2cc(O)cc(-c3ncc4c(N5CC6CCC(C5)N6)nc(OCC56CCCN5CC(F)C6)nc4c3F)c12 (stereo not given) + Nc1ccc(C#CCN(C(=O)Cc2ncc(C(F)(F)F)cc2C(F)(F)F)c2ccc(F)cc2)nn1 :: 102
COc1cc(C2c3cc4c(cc3C(OC3OC5COC(C)OC5C(O)C3O)C3COC(=O)C23)OCO4)cc(OC)c1O (stereo not given) + Cc1cccc(N(C)C(=O)C2C(O)CCN2c2nc(C)cc(C(F)(F)F)c2C#N)c1 :: 17.6
CNCc1ccc(-c2[nH]c3cc(F)cc4c3c2CCNC4=O)cc1 + Cc1cccc(N(C)C(=O)C2C(O)CCN2c2nc(C)cc(C(F)(F)F)c2C#N)c1 :: 62.5
O=C(c1cc(Cc2n[nH]c(=O)c3ccccc23)ccc1F)N1CCN(C(=O)C2CC2)CC1 + Nc1ccc(C#CCN(C(=O)Cc2ncc(C(F)(F)F)cc2C(F)(F)F)c2ccc(F)cc2)nn1 :: 94.8

QUERY: I have this compound here, CNCc1ccc(-c2[nH]c3cc(F)cc4c3c2CCNC4=O)cc1 + Nc1ccc(C#CCN(C(=O)Cc2ncc(C(F)(F)F)cc2C(F)(F)F)c2ccc(F)cc2)nn1 , and I need its recorded viability, T/C.
RESULT: 79.5

QUERY: For the compound O=C(Nc1ccc(O)c(NS(=O)(=O)c2ccc(F)cc2)c1)c1ccc(-c2ccccc2)cc1 + COC1C(OC(N)=O)C(O)C(Oc2ccc3c(O)c(NC(=O)c4ccc(O)c(CC=C(C)C)c4)c(=O)oc3c2C)OC1(C)C , what viability, T/C is on record?
RESULT: 109

QUERY: Data request, read-out viability, T/C, for C=CC(=O)N1CCN(c2nc(=O)n(-c3c(C)ccnc3C(C)C)c3nc(-c4c(O)cccc4F)c(F)cc23)C(C)C1 (stereo not given) + COC1C(OC(N)=O)C(O)C(Oc2ccc3c(O)c(NC(=O)c4ccc(O)c(CC=C(C)C)c4)c(=O)oc3c2C)OC1(C)C
RESULT: 98.2

QUERY: If you can, please state the reported viability, T/C value of C=CCn1c(=O)c2cnc(Nc3ccc(N4CCN(C)CC4)cc3)nc2n1-c1cccc(C(C)(C)O)n1 + COC1C(OC(N)=O)C(O)C(Oc2ccc3c(O)c(NC(=O)c4ccc(O)c(CC=C(C)C)c4)c(=O)oc3c2C)OC1(C)C .
RESULT: 8.11

----------
# Tested on: 817829-284-R-J1-PDC complex spheroid viability
# ASSAY_EXPLANATION: Anticancer human tumor 817829-284-R-J1-PDC cell line growth inhibition [POLQ]; active means viability on the fitted dose curve at most 10% of control; inactive means the rest;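 further: spheroids exposed to compounds for 7 days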
# CONDITION_INFO: second compound 1 µM; first compound 10 µM
Respond using exactly one of the listed classes: YES (active), NO (inactive)

CC1COCCN1c1cc(C2(O)CC3CCC(C2)O3)c2cnn(-c3ccn[nH]3)c2n1 (stereo not drawn) + Nc1ccc(C#CCN(C(=O)Cc2ncc(C(F)(F)F)cc2C(F)(F)F)c2ccc(F)cc2)nn1 :: YES
O=c1[nH]cc(F)c(=O)[nH]1 + Cc1cccc(N(C)C(=O)C2C(O)CCN2c2nc(C)cc(C(F)(F)F)c2C#N)c1 :: NO

Turning now to a further compound:
QUERY: Kindly provide the recorded test outcome for the following compound: CC1COCCN1c1cc(C2(O)CC3CCC(C2)O3)c2cnn(-c3ccn[nH]3)c2n1 (stereo not drawn) + COC1C(OC(N)=O)C(O)C(Oc2ccc3c(O)c(NC(=O)c4ccc(O)c(CC=C(C)C)c4)c(=O)oc3c2C)OC1(C)C
RESULT: YES

FYI, the data here is from PubChem BioAssay AID1963839.
